- measurement protocol: Multi-compound pharmacokinetics of ZJTSD in rat serum, semi-quantitative UPLC-Q/TOF-MS (peak area ratio versus time, non-compartmental)
- settings: male, Sprague-Dawley, rat, serum (hepatic portal vein blood), po, 1 mL/100 g body weight, t1/2, prototype compounds of ZJTSD absorbed into rat serum; mean±SD, n=3
observed property: half-life (h)
One number for each entry, in h.

Take a look at these entries with their results.
- C[N+](C)(C)CC(=O)O [P35, Betaine]: 24.2
- Cc1cc2c(cc1O)C(=O)c1ccccc1C2=O [P11, 2-Methyl-3-hydroxyanthraquinone]: 4.29
- O=c1ccc2cc(O)c(O)cc2o1 [P39, Esculetin]: 4.4
- O=C(O)c1ccc(O)cc1 [P41, p-Hydroxybenzoic acid]: 19.4
- COc1cc(-c2coc3cc(O)ccc3c2=O)ccc1O [P10, 7,4'-Dihydroxy-3'-methoxyisoflavone]: 67.3

Proceed to the following item.
# input Give its half-life value. Item: Cc1cc(O)cc2oc(CC(C)O)cc(=O)c12 (stereo not drawn) [P2]
# output 2.17

###

- measurement protocol: Multi-compound pharmacokinetics of ZJTSD in rat serum, semi-quantitative UPLC-Q/TOF-MS (peak area ratio versus time, non-compartmental)
- settings: male, Sprague-Dawley, rat, serum (hepatic portal vein blood), po, 1 mL/100 g body weight
Please respond with reported MRT last for every item in the list.
One number for each entry, in h.

Take a look at these entries with their results.
* N[C@@H](Cc1c[nH]c2ccccc12)C(=O)O [P23, Tryptophan] | 12.4
* O=C1CCCCN1 [P47, 2-Piperidone] | 11.8
* O=C(O)c1cc(O)c2c(c1)C(=O)c1cccc(O)c1C2=O [P18, Rhein] | 3.55
* COC(=O)C1CCC(=O)N1 (centres unmarked) [P33] | 13.9
* COc1c(O)c(C)cc2c1C(=O)c1ccc(O)cc1C2=O [P21] | 4.27

Please state MRT last for every compound in the list that follows.
1. C[N+](C)(C)CC(=O)O [P35, Betaine]
2. O=C(O)[C@@H]1CCCN1 [P26, Proline]

# output
10.8
11.1

Please state MRT last for every compound in the list that follows.
1. Cc1cc(=O)c2c(C)cc(O)cc2o1 [P1, 2,5-Dimethyl-7-hydroxychromone]
2. CC(=O)Cc1cc(O)cc2oc(C)cc(=O)c12 [P5, 2-Methyl-5-acetonyl-7-hydroxychromone]
3. C=Cc1ccc(O)c(OC)c1 [P42, 4-Vinyl-2-methoxyphenol]
4. Cc1cc2c(cc1O)C(=O)c1ccccc1C2=O [P11, 2-Methyl-3-hydroxyanthraquinone]
5. CC(=O)/C=C/c1ccc(CO)o1 [P51]

# output
3.43
4.23
10.2
3.23
4.2

Please state MRT last for every compound in the list that follows.
1. O=C1c2cccc(O)c2C(=O)c2c(O)cc(CO)cc21 [P17, Aloe-emodin]
2. O=c1ccc2cc(O)c(O)cc2o1 [P39, Esculetin]

# output
5.2
4.92

Please state MRT last for every compound in the list that follows.
1. COc1cc2ccc(=O)oc2cc1O [P38, Scopoletin]
2. O=C1c2ccccc2C(=O)c2cc(CO)c(O)cc21 [P15, 2-Hydroxy-3-hydroxymethylanthraquinone]
3. O=C(O)/C=C/c1ccccc1 [P36, Cinnamic acid]
4. CSCC[C@H](N)C(=O)O [P25, L-Methionine]

# output
4.36
4.81
5.15
12.5

Every entry's value here was drawn from paper PMC10957775.
